The values you see were collected from PubChem BioAssay (EPA / NIEHS).

- System under test: Transcriptional activator Myb (Homo sapiens)
- Protocol summary: ATG_Myb_CIS: Attagene CIS-FACTORIAL HepG2 Assay for human Myeloblastosis (Myb) Proto-Oncogene Transcription Factor (AID 2282986)
- Condition: HepG2 Attagene CIS-FACTORIAL Myb reporter transcription; actives raise or lower the signal
Calls of active or inactive are those of the source. How the source made its calls: active means hit-call score of the fitted dose curve at least 0.9, where 1 is the maximum; inactive means score below 0.9.
In this exercise, the only acceptable responses are active, inactive

CCCCC(CC)C(=O)OCCOCCOCCOCCOC(=O)C(CC)CCCC (configuration not stated) :: inactive
O=C(NCc1ncc(C(F)(F)F)cc1Cl)c1c(Cl)cccc1Cl :: inactive
Cc1[nH]nc2c1N=C(c1ccccc1Cl)c1cc([N+](=O)[O-])ccc1N2 :: inactive
Clc1ccc2c(Cl)ccnc2c1 :: inactive
C=CC(=O)OCCN(CC)CC :: inactive
C=CC(=C)CC/C=C(\C)CCC=C(C)C :: inactive
Cc1cc(C(C)(C)C)c(O)c(C(C)(C)C)c1 :: inactive
FC1(F)C=CC(F)(F)C1(F)F :: inactive
COC(=O)CC(C(C)=O)C(=O)OC (configuration not stated) :: inactive
O=C1NS(=O)(=O)c2ccccc21 :: inactive

query: Identify the outcome logged in this assay for the molecule shown: CCCCCCCCCC=CCC1CC(=O)OC1=O (configuration not stated)
result: inactive

query: Identify the outcome logged in this assay for the molecule shown: CC(O)COc1ccccc1 (configuration not stated)
result: inactive

query: Identify the outcome logged in this assay for the molecule shown: `NNc1nc(-c2ccc([N+](=O)[O-])cc2)cs1`
result: inactive

* * *

- Protocol summary: ATG_TCF_b_cat_CIS: Attagene CIS-FACTORIAL HepG2 Assay for human T-Cell-Factor with beta-catenin (TCF/b-cat) (AID 2282965)
- Condition: HepG2 TCF/beta-catenin cis-reporter transcription, actives raise or lower the signal
Active and inactive are the calls of the source. The calls were made as follows: active = hit-call score of the fitted dose curve at least 0.9, where 1 is the maximum; inactive = score below 0.9.
In this exercise, the only acceptable responses are Y (active), N (inactive)

Below, 6 molecules whose answers are already recorded.
Cc1ccc(N=Nc2c(O)ccc3ccccc23)c(C)c1 :: N
CC1COCc2cc3c(cc21)C(C)(C)C(C)C3(C)C (configuration not stated) :: N
O=C1c2ccc(O)c(O)c2C(=O)c2c(O)ccc(O)c21 :: N
COC1=CC(=O)C[C@@H](C)[C@]12Oc1c(Cl)c(OC)cc(OC)c1C2=O :: Y
Clc1ccc2c(Cl)ccnc2c1 :: N
Cc1ccccc1OCC(=O)O :: N

query: Identify the outcome logged in this assay for the molecule shown: `Oc1cccc2c(O)cccc12`
result: N

* * *

- Protocol summary: TOX21_p53_BLA_p3_viability: Viability Assessment in the Tox21 HCT-116 p53 Agonism Beta-lactamase Assay, Phase 3 (AID 2283593);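 further: cells exposed to compound for 16 h before reading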
Results filed as inconclusive are left out. Active and inactive are the calls of the source. Rule for the calls: active = hit-call score of the fitted dose curve at least 0.9, where 1 is the maximum; inconclusive = response in the unintended direction; inactive = score below 0.9.
In this exercise, the only acceptable responses are active, inactive

Below, 5 compounds whose answers are already recorded.
O=C(c1ccccc1)c1ccccc1 :: inactive
O=C(O)c1cccc(C(=O)O)n1 :: inactive
CCOC(=O)CN[C@@H](C(=O)N1CC[C@H]1C(=O)NCc1ccc(/C(N)=N/O)cc1)C1CCCCC1 :: inactive
CNNCc1ccc(C(=O)NC(C)C)cc1 :: inactive
Oc1c(Cl)ccc(Cl)c1Cl :: inactive

Okay, next one:
query: Identify the outcome logged in this assay for the compound shown: `c1cnc2c(c1)ccc1cccnc12`
result: inactive

* * *

- System under test: Myc proto-oncogene protein (Homo sapiens) (UniProt P01106)
- Sequence (P01106 whole entry, looked up): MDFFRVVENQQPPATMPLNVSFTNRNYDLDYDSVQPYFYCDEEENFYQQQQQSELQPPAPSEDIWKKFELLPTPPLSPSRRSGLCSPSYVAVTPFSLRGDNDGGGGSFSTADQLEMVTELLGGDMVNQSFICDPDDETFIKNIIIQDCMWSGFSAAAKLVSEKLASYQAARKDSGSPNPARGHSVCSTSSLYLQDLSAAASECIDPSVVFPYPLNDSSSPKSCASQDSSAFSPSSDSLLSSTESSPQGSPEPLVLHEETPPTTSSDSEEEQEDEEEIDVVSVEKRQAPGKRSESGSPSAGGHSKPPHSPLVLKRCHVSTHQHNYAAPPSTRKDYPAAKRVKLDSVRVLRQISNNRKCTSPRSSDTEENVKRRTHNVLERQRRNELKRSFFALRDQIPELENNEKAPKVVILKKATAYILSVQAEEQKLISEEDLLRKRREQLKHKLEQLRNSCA
- Protocol summary: ATG_Myc_CIS: Attagene CIS-FACTORIAL HepG2 Assay for human Myelocytomatosis (Myc) Proto-Oncogene Transcription Factor (AID 2282990)
- Condition: HepG2, Attagene cis-reporter transcription factor activity; actives raise or lower the signal
Active and inactive are the calls of the source. Rule for the calls: active = hit-call score of the fitted dose curve at least 0.9, where 1 is the maximum; inactive = score below 0.9.
In this exercise, the only acceptable responses are true (1) = active, false (0) = inactive

CCC(C)c1ccccc1O (stereo unspecified) :: false (0)
Cn1sccc1=O :: true (1)
Cc1ccccc1OCC(=O)O :: false (0)
CCCCCCC(C)(C)C(=O)O :: false (0)
C/C=C/C(=O)C1=C(C)CCCC1(C)C :: false (0)
COC(=O)C(F)(F)C(F)(F)C(F)(F)F :: false (0)
CCOCCOCC :: false (0)
OCC1CCC(CO)CC1 (stereo unspecified) :: false (0)

query: Identify the outcome logged in this assay for the compound shown: `c1cnc2c(c1)ccc1cccnc12`
result: false (0)

query: Identify the outcome logged in this assay for the compound shown: `O=C(c1cc(O)c(O)c(O)c1)c1ccc(O)c(O)c1O`
result: false (0)

query: Identify the outcome logged in this assay for the compound shown: `COc1ccc(C#N)cc1`
result: false (0)

query: Identify the outcome logged in this assay for the compound shown: `c1ccc2c(c1)CCC2`
result: false (0)

query: Identify the outcome logged in this assay for the compound shown: `CCN(CC)CC`
result: false (0)

query: Identify the outcome logged in this assay for the compound shown: c1ccc(CNc2ncnc3c2ncn3C2CCCCO2)cc1 (stereo unspecified)
result: false (0)

query: Identify the outcome logged in this assay for the compound shown: `O=C1OC(=O)C(F)(F)C1(F)F`
result: false (0)

query: Identify the outcome logged in this assay for the compound shown: `Cc1ccc(S(=O)(=O)O)cc1`
result: false (0)

* * *

- Protocol summary: APR_HepG2_CellLoss_24hr: Apredica 24-hour HepG2 Assay for Cell Loss (AID 2282908)
- Condition: high-content imaging
Calls of active or inactive are those of the source. How the source made its calls: active means hit-call score of the fitted dose curve at least 0.9, where 1 is the maximum; inactive means score below 0.9.
In this exercise, the only acceptable responses are t (active), f (inactive)

CCCCCCCCCCCCOS(=O)(=O)O :: f
N=C(N)c1ccc(OCCCCCOc2ccc(C(=N)N)cc2)cc1 :: t
OCC(CO)(CBr)CBr :: f
O=C1NS(=O)(=O)c2ccccc21 :: f
CS(=O)(=O)c1ccc([C@@H](CC2CCCC2)C(=O)Nc2cnccn2)cc1Cl :: f

query: Identify the outcome logged in this assay for the compound shown: `O=C(CCCN1CCC(O)(c2ccc(Cl)cc2)CC1)c1ccc(F)cc1`
result: t

query: Identify the outcome logged in this assay for the compound shown: `CCCCC=O`
result: f

query: Identify the outcome logged in this assay for the compound shown: `CCCCc1oc2ccccc2c1C(=O)c1cc(I)c(OCCN(CC)CC)c(I)c1`
result: t

query: Identify the outcome logged in this assay for the compound shown: `O=C(c1ccccc1)c1ccccc1`
result: f

* * *

- System under test: Peroxisome proliferator-activated receptor gamma (Homo sapiens) (UniProt P37231)
- Sequence (P37231 whole entry, looked up): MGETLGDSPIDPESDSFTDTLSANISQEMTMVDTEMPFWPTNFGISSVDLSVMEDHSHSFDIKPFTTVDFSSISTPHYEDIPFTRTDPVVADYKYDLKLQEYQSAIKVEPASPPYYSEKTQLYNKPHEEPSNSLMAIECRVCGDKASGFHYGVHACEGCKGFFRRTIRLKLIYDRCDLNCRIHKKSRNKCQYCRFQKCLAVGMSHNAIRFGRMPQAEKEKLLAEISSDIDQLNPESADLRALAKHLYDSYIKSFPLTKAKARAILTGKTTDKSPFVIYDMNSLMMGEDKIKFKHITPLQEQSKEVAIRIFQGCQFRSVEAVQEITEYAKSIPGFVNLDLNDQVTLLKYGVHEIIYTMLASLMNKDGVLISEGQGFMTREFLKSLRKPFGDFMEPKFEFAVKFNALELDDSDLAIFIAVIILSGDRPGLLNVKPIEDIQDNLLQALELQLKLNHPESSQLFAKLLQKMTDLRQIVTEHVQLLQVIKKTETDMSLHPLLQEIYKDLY
- Protocol summary: ATG_PPARg_TRANS: Attagene TRANS-FACTORIAL HepG2 Assay for human Peroxisome Proliferator-activated Receptor-gamma (PPARg) (AID 2283007)
Inconclusive results are not listed. Activity calls are given as the source filed them. How the source made its calls: active means hit-call score of the fitted dose curve at least 0.9, where 1 is the maximum; inconclusive means response in the unintended direction; inactive means score below 0.9.
Endpoint label: AC50

C=CCOCC(CO)(CO)CO :: inactive
CCCCC(CC)C(=O)O (stereo not given) :: inactive
COc1ccc(C#N)cc1 :: inactive
O=CC(F)(F)C(F)(F)C(F)(F)C(F)F :: inactive
CCCCCCCCCCCCCC[n+]1ccccc1 :: 13.6 µM (active)

query: Answer with the recorded AC50 for the molecule listed here: `O=C1Cc2ccccc2N1c1c(Cl)cccc1Cl`
result: inactive

query: Answer with the recorded AC50 for the molecule listed here: `CCCCc1ccc2ccccc2c1S(=O)(=O)O`
result: 45.4 µM (active)

* * *

- Protocol summary: ATG_EGR_CIS: Attagene CIS-FACTORIAL HepG2 Assay for human Early Growth Response 1 (EGR1) (AID 2282938)
- Condition: HepG2 Attagene CIS-FACTORIAL EGR reporter mRNA; actives raise or lower the signal
Active and inactive are the calls of the source. The calls were made as follows: active = hit-call score of the fitted dose curve at least 0.9, where 1 is the maximum; inactive = score below 0.9.
In this exercise, the only acceptable responses are active, inactive

query: Identify the outcome logged in this assay for the molecule shown: `COc1ccc(C#N)cc1`
result: inactive

query: Identify the outcome logged in this assay for the molecule shown: `Nc1ccc(O)c(C(=O)O)c1`
result: inactive

query: Identify the outcome logged in this assay for the molecule shown: `FC(F)(F)C1(F)C(F)(F)C(F)(F)C(F)(F)C1(F)F`
result: inactive

query: Identify the outcome logged in this assay for the molecule shown: `O=C1NS(=O)(=O)c2ccccc21`
result: inactive

query: Identify the outcome logged in this assay for the molecule shown: `CC(C)CCOCCC(C)C`
result: inactive

query: Identify the outcome logged in this assay for the molecule shown: `CCC(=O)C=Cc1ccc(OC)cc1`
result: active

query: Identify the outcome logged in this assay for the molecule shown: `CC1=NN(c2ccccc2)C(=O)C1`
result: inactive

query: Identify the outcome logged in this assay for the molecule shown: `Cc1ccc(C)c(S(=O)(=O)O)c1`
result: inactive

* * *

- Read-out: Monocyte Chemoattractant Protein-1 (MCP1), CCL2 (gene 6347)
- Protocol summary: BSK_BF4T_MCP1: BioMAP Diversity Plus: BF4T Assay for Monocyte Chemoattractant Protein-1 (MCP1) Biomarker Activity (AID 2284259)
- Condition: primary human bronchial epithelial cells with fibroblasts
Active and inactive are the calls of the source. How the source made its calls: active means hit-call score of the fitted dose curve at least 0.9, where 1 is the maximum; inactive means score below 0.9.
Endpoint label: outcome

CN(CCO)S(=O)(=O)C(F)(F)C(F)(F)C(F)(F)C(F)(F)C(F)(F)C(F)(F)C(F)(F)C(F)(F)F :: inactive
O=P(O)(O)CCC(F)(F)C(F)(F)C(F)(F)C(F)(F)C(F)(F)C(F)(F)F :: inactive
O=C(O)CCC(F)(F)C(F)(F)C(F)(F)C(F)(F)C(F)(F)F :: inactive
C=CC(=O)OCCC(F)(F)C(F)(F)C(F)(F)C(F)(F)C(F)(F)C(F)(F)C(F)(F)C(F)(F)F :: inactive

query: Answer with the recorded outcome for the compound listed here: `O=S(=O)(O)C(F)(F)C(F)(F)C(F)(F)C(F)(F)C(F)(F)C(F)(F)C(F)(F)C(F)(F)C(F)(F)C(F)(F)F`
result: inactive
